Record form. Attribute: IC50. Fill in for each entry.
subject.of.test: HCV NS3/4A protease complex, BMS strain (genotype 1a) (UniProt P27958, species not given/STRAIN_BMS)
Construct: DNA encoding the recombinant HCV NS3/4A protease complex (amino acids 1027 to 1711) for these strains [given for H77 and J4L6S only]; These are given only for the H77 and J4L6S constructs
Sequence (P27958 1027-1657, stated change not applied, one chain of several): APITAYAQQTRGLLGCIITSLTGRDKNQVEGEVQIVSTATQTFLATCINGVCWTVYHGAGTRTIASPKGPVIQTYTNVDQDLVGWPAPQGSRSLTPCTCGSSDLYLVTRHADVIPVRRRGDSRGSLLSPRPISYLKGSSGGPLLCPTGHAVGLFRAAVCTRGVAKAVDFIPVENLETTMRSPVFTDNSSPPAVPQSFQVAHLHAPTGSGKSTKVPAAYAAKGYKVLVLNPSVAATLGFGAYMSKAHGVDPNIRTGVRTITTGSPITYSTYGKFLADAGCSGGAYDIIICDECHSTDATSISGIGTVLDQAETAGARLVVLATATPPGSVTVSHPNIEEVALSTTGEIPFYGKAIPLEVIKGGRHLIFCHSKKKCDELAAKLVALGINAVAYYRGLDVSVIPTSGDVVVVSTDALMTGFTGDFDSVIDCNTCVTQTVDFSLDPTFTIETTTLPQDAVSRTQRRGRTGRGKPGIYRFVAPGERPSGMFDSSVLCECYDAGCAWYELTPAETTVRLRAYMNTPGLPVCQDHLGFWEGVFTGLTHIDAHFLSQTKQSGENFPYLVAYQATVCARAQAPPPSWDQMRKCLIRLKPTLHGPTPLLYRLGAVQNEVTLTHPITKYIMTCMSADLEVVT
test.name: FRET peptide assay to monitor HCV NS3/4A proteolytic activity (BMS strain)
Assay type: biochemical
conditions: NS3/4A BMS strain; activity range; read-out: IC50 (range or value)

Worked cases, answers included:
>  <compound>
C=C[C@@H]1C[C@]1(NC(=O)C1CC(Oc2cc(-c3ccccc3)nc3cc(OC)ccc23)CN1C(=O)[C@@H](Nc1nc(C(F)(F)F)cs1)C(C)(C)C)C(=O)NS(=O)(=O)C1CC1 (stereo partly shown) [Compound 5]

>  <experimental.endpoint>
IC50

>  <data.value>
4 to 20 nM

$$$$
>  <compound>
C=C[C@@H]1C[C@]1(NC(=O)[C@@H]1C[C@@H](OC(=O)N2Cc3cccc(F)c3C2)CN1C(=O)C(Nc1cc(C)cc(C)n1)C(C)C)C(=O)NS(=O)(=O)C1CC1 (single isomer, unassigned) [Compound 2A]

>  <experimental.endpoint>
IC50

>  <data.value>
4 to 20 nM

$$$$
>  <compound>
C=C[C@@H]1C[C@]1(NC(=O)[C@@H]1C[C@@H](Oc2cc(-c3cccs3)cc(-c3ccccc3)n2)CN1C(=O)C(Nc1cc(C)cc(C)n1)C(C)C)C(=O)NS(=O)(=O)C1CC1 (single isomer, unassigned) [Compound 1B]

>  <experimental.endpoint>
IC50

>  <data.value>
20 to 200 nM

$$$$

Could you now look at the following compound, please?
Summary for this compound, C=C[C@@H]1C[C@]1(NC(=O)C1CC(Oc2cc(-c3ccccc3)nc3cc(OC)ccc23)CN1C(=O)[C@@H](Nc1nc(C(C)(C)C)cs1)C(C)(C)C)C(=O)NS(=O)(=O)C1CC1 (stereo partly shown) [Compound 4] : IC50 is 4 to 20 nM
